Property: fraction ligated; scope: individual variants
B1: F1*; the commonest letter at each place (parent)
chain: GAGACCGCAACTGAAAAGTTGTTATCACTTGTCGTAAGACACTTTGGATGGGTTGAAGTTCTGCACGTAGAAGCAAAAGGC

# Variants of: B1
# methodSummary: fraction ligated after 30 min (ligated reads / total reads); higher = more ligase activity
# experimentalContext: with F1*sub RNA substrate (template-directed ligation), 42 °C

Some solved cases for reference:
GAGACCGCAACTGAAAAGTTGTTATCACTTGTCGCAAGCCACTTTGGATGGGTTGAAGTTCTGCACGTAGAAGCAAAAGGC :: 0.824
GAGACCGCAACTGAAAAGTTGTTATCACTTGTCGTAAGACACTCTGGATGGGTTGAGGTTCTGCACGTAGAAGCAAAAGGC :: 0.802
GAGACCGCAACTGAAAAGTTGTTATCACTTGTCCTAAGACACTTTGGATGGGTTTAAGTTCTGCACGTAGAAGCAAAAGGC :: 0.809

Find the recorded fraction ligated belonging to GAGACCGCAACTGAAAAGTTGTTATCACTTTTCGTAAGACAATTTGGATGGGTTGAAGTTCTGCACGTAGAAGCAAAAGGC and report it. 0.809

Any idea what fraction ligated was measured for GAGACCGCAACTGAAAAGTTGTTATCCCTTGTCGTAAGACACTTTGAATGGGTTGAAGTTCTGCACGTAGAAGCAAAAGGC ? 0.799

Consider the variant GAGACCGCAACTGAAAAGTTGTTATCCCTTGTTGTAAGACACTTTGGATGGGTTGAAGTTCTGCACGTAGAAGCAAAAGGC and give its measured fraction ligated. 0.795

Query: fraction ligated; subject: GAGACCGCAACTGAAAAGTTGTTATCACATGTCGTAAGACACTTTGGATGGGTTGCAGTTCTGCACGTAGAAGCAAAAGGC 0.799

What does the data say about its fraction ligated? Entry: GAGACCGCAACTGAAAAGTTGTTATCATTTGTCGTAAGACACTTTGGATGGGTTGATGTTCTGCACGTAGAAGCAAAAGGC 0.817

Which fraction ligated reading was recorded for the variant GAGACCGCAACTGAAAAGTTGTTATCAATTGTCGTAAGCCACTTTGGATGGGTTGAAGTTCTGCACGTAGAAGCAAAAGGC ? 0.802

What measured fraction ligated goes with GAGACCGCAACTGAAAAGTTGTTATCACTTGTGGTAAGACACTTTGGATGGGTTGGAGTTCTGCACGTAGAAGCAAAAGGC ? 0.793

Where these numbers come from: the supplement of paper PMC6755084
